System: LOC_OS06G16330-cb003;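 note: purified Escherichia coli-expressed rice kinase domain construct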
Sequence (as listed by the source): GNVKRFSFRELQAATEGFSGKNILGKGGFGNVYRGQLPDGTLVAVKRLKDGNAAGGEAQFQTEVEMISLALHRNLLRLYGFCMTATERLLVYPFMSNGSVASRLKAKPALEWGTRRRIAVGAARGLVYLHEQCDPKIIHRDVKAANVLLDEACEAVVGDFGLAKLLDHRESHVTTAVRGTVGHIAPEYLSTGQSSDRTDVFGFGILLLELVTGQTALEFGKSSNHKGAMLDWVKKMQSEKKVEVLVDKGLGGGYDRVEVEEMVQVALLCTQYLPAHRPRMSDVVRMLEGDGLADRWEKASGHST
Experiment: thermal shift delta Tm vs DMSO control; higher = stronger stabilization (binding)
Conditions: 12.5 µM; protein concentration 2 µM
Threshold check on thermal shift delta Tm: at or above 0.3 °C gives true, strictly below gives false.

- Compound: "O=C(O)c1cc(O)c2c(c1)[C@@H]([C@H]1c3cc(C(=O)O)cc(O)c3C(=O)c3c(O[C@@H]4O[C@H](CO)[C@@H](O)[C@H](O)[C@H]4O)cccc31)c1cccc(O[C@@H]3O[C@H](CO)[C@@H](O)[C@H](O)[C@H]3O)c1C2=O [Sennoside B]"
  Label value: "false"

Let us examine a further case.
Could you tell me if the measured thermal shift delta Tm of N#C/C(=C(/N)Sc1ccc(N)cc1)c1ccccc1C(F)(F)F reaches 0.3 °C or more?
false

Origin of values: the supplement of paper PMC9694430
